Molecular target: T1, SHANK3, Q9BYB0
T1 sequence (Q9BYB0 641-750, limits assumed, looked up): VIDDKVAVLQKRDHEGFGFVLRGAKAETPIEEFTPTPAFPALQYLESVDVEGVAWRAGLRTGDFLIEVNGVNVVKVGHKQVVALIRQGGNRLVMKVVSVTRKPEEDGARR
Test: holdup assay
Design: key: below the threshold = too weak to quantify, mostly under pKd 3.1 to 4
Settings: plain residues with an end cap or a label only (N-terminal biotin on a linker: ttds)
recordedMetric: pKd

# binder, valueObserved
measured = [
    ("QSARYRDTEL [TJP2, Q9UDY2]", "below the threshold"),
    ("SSRTRRETQL [HPV16-E6, P03126]", "below the threshold"),
    ("RSLEEEESQL [GRASP, Q7Z6J2]", 5.24),
    ("STLTIFETAL [ABCC4, O15439]", 5.54),
    ("SVWLRKETRV [CYSLTR2, Q9NS75]", "below the threshold"),
]

## Input // Input: SRPQRTQTQV [HPV67-E6, A4U7F2] . Output its pKd only.
## Output below the threshold

## Input Input PKTPPTDTSV [KIR3DL3, Q8N743] , output reported pKd.
## Output below the threshold

FYI, the data here is from paper PMC9482650.
